Provenance of the data: paper doi:10.64898/2025.12.19.695307

experimental-target: SARS-CoV-2 Beta (B.1.351) RBD (SARS-CoV-2 Beta (B.1.351), strain)
procedure-summary: BLI
measured-endpoint: Kd

Give me measured Kd, please, for this binder: BD56-597 (antibody, V domains shown) VH: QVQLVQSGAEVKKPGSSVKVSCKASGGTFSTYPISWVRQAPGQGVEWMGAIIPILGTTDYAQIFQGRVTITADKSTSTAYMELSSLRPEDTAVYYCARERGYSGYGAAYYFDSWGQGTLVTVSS VL: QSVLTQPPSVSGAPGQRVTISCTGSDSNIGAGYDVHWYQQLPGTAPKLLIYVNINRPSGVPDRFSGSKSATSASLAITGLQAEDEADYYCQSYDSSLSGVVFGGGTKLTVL
< 0.3 nM
